# ASSAY_SYSTEM: T1, mCherry-WIPI3 (UniProt Q5MNZ6 1-344)
# T1 construct: 6xHis-TEV-mCherry tag; also called mCherry-tagged WIPI3; source: E. coli Rosetta pLysS, purified; not shown: mCherry, N-terminal, kept
# ASSAY_METHOD_TEXT: microscopy-based bead assay; GFP-tagged bait on GFP-trap agarose beads, mCherry-tagged prey in solution, confocal imaging
# ASSAY_SETUP: both partners purified

BINDER: GFP-tagged ATG13 IDR Δ191–205 (205–517 aa) (domain or fragment, UniProt O75143 205-517, looked up, Addgene number by the order of printing; source: E. coli Rosetta pLysS, purified; not shown: EGFP, N-terminal, kept) PPIMGIIIDHFVDRPYPSSSPMHPCNYRTAGEDTGVIYPSVEDSQEVCTTSFSTSPPSQLSSSRLSYQPAALGVGSADLAYPVVFAAGLNATHPHQLMVPGKEGGVPLAPNQPVHGTQADQERLATCTPSDRTHCAATPSSSEDTETVSNSSEGRASPHDVLETIFVRKVGAFVNKPINQVTLTSLDIPFAMFAPKNLELEDTDPMVNPPDSPETESPLQGSLHSDGSSGGSSGNTHDDFVMIDFKPAFSKDDILPMDLGTFYREFQNPPQLSSLSIDIGAQSMAEDLDSLPEKLAVHEKNVREFDAFVETLQ
binding result: binds

BINDER: INLAFMSTRQFERTPPIMGIIIDHFVDRPYPSSSPMHPCN (peptide, UniProt O75143 191-230, looked up, Addgene number by the order of printing; source: E. coli Rosetta pLysS, purified; not shown: EGFP, N-terminal, kept) [GFP-tagged ATG13 (191–230 aa)]
binding result: binds

BINDER: PIMGIIIDHFVDRPYPSSSPMHPCN (peptide, UniProt O75143 206-230, looked up, ATG13, residues 206-230; Addgene number by the order of printing; also called ATG13 IDR fragment residues 206–230; source: E. coli Rosetta pLysS, purified; not shown: EGFP, N-terminal, kept) [GFP-tagged ATG13 (206–230 aa)]
binding result: binds
